Biological target: Pcf11;Clp1 (Saccharomyces cerevisiae;Saccharomyces …, UniProt P39081;Q08685 1-626;1-445, |)
Sequence (P39081 whole entry, chain 1 of 2): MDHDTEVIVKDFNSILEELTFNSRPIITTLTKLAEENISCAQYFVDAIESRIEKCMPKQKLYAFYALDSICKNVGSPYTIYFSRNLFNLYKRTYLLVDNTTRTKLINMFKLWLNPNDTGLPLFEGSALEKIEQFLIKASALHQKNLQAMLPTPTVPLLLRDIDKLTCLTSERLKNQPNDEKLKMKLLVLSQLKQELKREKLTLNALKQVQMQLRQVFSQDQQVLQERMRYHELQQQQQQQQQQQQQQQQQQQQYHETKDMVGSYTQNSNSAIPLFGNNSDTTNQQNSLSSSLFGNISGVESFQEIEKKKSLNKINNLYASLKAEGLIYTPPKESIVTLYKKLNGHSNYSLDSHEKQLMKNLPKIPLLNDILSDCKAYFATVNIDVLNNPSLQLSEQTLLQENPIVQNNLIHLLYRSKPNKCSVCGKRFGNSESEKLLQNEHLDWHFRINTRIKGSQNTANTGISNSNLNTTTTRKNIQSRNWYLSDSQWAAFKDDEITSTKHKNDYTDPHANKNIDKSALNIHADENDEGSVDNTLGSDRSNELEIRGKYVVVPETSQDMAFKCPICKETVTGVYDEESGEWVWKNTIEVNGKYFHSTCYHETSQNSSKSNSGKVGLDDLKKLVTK
Sequence (Q08685 whole entry, chain 2 of 2): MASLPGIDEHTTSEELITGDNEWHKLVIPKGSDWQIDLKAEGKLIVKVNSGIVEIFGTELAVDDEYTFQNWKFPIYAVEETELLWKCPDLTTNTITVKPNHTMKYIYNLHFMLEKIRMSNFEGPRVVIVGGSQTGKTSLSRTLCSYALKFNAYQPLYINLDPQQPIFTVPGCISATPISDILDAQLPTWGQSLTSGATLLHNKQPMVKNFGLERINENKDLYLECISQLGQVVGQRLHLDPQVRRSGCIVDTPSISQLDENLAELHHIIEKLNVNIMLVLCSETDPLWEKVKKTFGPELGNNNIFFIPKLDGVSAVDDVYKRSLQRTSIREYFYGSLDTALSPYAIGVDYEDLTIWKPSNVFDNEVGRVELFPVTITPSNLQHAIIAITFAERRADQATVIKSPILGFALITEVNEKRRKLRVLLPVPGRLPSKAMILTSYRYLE
Assay: EMSA; EMSA: 50 nM RNA, 0.25-4.0 uM protein, protein diluted in 10 mM HEPES pH 7.9, 150 mM NaCl, 0.5 mM Mg(OAc)2, plus 1x loading dye (orange G, glycerol, EDTA); 30 min on ice; native 6% acrylamide/TBE PAGE
Settings: protein: recombinant;recombinant; tags: 6H;; copies: 1;1; label: 5'-FAM

# binder, binding result
rows = [
    ("AAAAAAAAAAAAAAA (ssRNA) [A15]", "no binding"),
    ("AAGAACGUUAUUUAUAUUUCAAAUUUUUCUUUUUU (ssRNA) [CYC1d EMSA probe]", "binds"),
    ("CGUUAUUUAUAUUUCAAAUUUUUCU (ssRNA) [CYC1f EMSA probe]", "binds"),
    ("GGGGGGGGGGGGGGG (ssRNA) [G15]", "no binding"),
    ("CCCCCCCCCCCCCCC (ssRNA) [C15]", "no binding"),
    ("UUUUUUUUUUUUUUU (ssRNA) [U15]", "no binding"),
]

Ref: paper PMC6436931
